This collection of values is drawn from patent US4772602A.

Test: acute toxicity (LD50), Litchfield-Wilcoxon method
Set-up: species or system mouse (male ddY)
Settings: mouse, in vivo; male ddY mice fasted overnight, oral, emulsion in 10% dimethyl sulfoxide; read-out: LD50 oral
reportedMetric: LD50

Input: Supply recorded LD50 for CC1=NC(C)=C(C(=O)OCC2CC2)C(c2ccccc2[N+](=O)[O-])N1C(=O)OCCN(CCCc1ccccc1)Cc1ccccc1 (stereo not shown) here.
Output: > 1000 mg/kg
